Values compiled from patent US20200347144A1.

Recorded measurements of average fluorescence intensity, one per entry
targetOfAssay: T1, human 4-1BB, full length, on transfected cells (human, UniProt Q07011 24-255)
T1 construct: whole, on cells; also called CHOK1-h4-1BB
T1 sequence (Q07011 24-255): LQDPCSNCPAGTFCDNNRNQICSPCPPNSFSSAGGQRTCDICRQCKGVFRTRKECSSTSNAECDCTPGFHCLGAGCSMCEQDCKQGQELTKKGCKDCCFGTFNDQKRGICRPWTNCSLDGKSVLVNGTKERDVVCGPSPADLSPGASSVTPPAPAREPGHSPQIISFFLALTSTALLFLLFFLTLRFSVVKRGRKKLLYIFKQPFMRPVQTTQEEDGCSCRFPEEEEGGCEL
experimentalDetails: FACS, CHOK1-h4-1BB cells; Ab 0.016 ug/ml
Text: […]
The reply should contain only the number, in MFI.

>>> recordedmeasurement("119B6G5 (antibody, V domains shown) VH: EVQLLESGGGLVQPGGSLRLSCAASGFTFSNYAMSWVRQGPGKGLEWVSTIIGSGDSTYYTDSVKGRFTISRDNSKNTLFLQMNSLRAEDTAVYYCARDKSGWYYFDYWGQGTLVTVSS VL: DIQMTQSPSTLSASVGDRVTITCRASQSISNWLAWYQQKPGKAPKLLIYKASSLESGVPSRFSGSGSGTEFTLTISSLQPDDFATYYCQQYNDYFPITFGQGTRLEIK")
49.1
>>> recordedmeasurement("113F6C6 (antibody, V domains shown, also called 4-1BB fully human antibody 113F6C6; 113F6F6) VH: QVQLVESGGGVVQPGRSLRLSCAASGLTFSSYGMHWVRQAPGKGLEWVAVIWYDGSNKYYADSVKGRFTISRDNSKNTLYLQMNSLRAEDTAVYYCAREEVLWFGELSYNYYYGMDVWGQGTTVTVSS VL: DIQMTQSPSSLSASVGDRVTITCRASQGISNYLAWYQQKPGKVPKLLIYAASTLQSGVPSRFSGSGSGTDFTLTISSLQPEDVATYYCQKYNSVPLTFGGGTKVEIK")
46.2

Attention now turns to another entry.
average fluorescence intensity for 52F4G2 (antibody, V domains shown) VH: QVQLQESGPGLVKPSETLSLTCAVSGYSISSGYYWGWIRQPPGKGLEWIGSIFHSGSSYYNPSLKSRVTISVDTSKNQFSLKLRSVTAADTAVYYCARESSGWNCFDYWGQGTLVTVSS VL: DIQMTQSPSTLSASVGDRVTITCRASQTISTWLAWYQQKPGKAPKLLIYKASNLESGVPSRFSGSGSGTEFTLTISSLQPDDFATYYCQQYNSYSITFGQGTRLEIK is 141
